Target: soybean lipoxygenase (LOX) (Glycine max)
Construct: gene LOX1.1
Sequence (P08170 1-839): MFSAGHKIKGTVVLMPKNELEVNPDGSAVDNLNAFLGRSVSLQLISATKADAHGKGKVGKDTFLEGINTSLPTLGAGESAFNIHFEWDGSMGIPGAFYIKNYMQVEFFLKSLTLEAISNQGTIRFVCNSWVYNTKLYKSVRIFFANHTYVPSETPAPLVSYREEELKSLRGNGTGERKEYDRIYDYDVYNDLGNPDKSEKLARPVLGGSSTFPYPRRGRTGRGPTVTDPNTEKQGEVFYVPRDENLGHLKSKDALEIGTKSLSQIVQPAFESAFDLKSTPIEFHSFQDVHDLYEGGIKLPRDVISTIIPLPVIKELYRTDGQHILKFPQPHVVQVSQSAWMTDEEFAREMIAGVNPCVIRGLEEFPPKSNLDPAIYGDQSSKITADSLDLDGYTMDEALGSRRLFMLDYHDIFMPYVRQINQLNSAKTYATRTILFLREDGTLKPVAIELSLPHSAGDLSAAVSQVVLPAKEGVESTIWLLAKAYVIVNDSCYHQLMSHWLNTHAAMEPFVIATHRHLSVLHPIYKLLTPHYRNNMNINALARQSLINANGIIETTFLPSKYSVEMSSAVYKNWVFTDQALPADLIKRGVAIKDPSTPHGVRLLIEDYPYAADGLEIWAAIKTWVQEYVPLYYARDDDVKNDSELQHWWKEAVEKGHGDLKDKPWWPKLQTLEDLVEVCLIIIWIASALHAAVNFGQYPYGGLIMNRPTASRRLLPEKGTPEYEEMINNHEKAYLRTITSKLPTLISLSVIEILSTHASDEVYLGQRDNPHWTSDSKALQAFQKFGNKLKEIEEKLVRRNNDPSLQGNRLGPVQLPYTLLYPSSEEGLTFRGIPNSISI
Assay: UV absorbance at […] nm, conversion of sodium linoleate to 13-hydroperoxylinoleic acid, Tris pH […]
Format: biochemical
Settings: read-out: LOX Inhibition (% or IC50)
pIC50: −log10 of the molar value.

>  <structure as smiles>
CC#C[C@]1(O)CC[C@H]2[C@@H]3CCC4=CC(=NO)CCC4=C3[C@@H](c3ccc(N(C)C)cc3)C[C@@]21C

>  <pIC50>
5.42

$$$$
